assay: Apparent half-life of the terminal disposition phase in C57BL/6 mouse plasma at 23.4 mg/kg, po administered as single dose measured 24 hrs by UPLC-MS/MS analysis; assay type: ADME, organism-based; settings: read-out: t1/2 lambda z (converted)

Compound smiles | half-life
CN(CC(=O)O)[C@H](CC#N)Cc1ccc(OCc2ccc(Cl)c(Cl)c2)cc1 | 2.93 h

====

experiment: Cmax in C57BL/6 mouse brain at 24.5 mg/kg, iv administered as single dose measured 24 hrs by UPLC-MS/MS analysis; type: ADME, organism-based; set-up: dose 24.5 mg/kg, route intravenous

Compound smiles | Cmax, ng/mL
C[C@H](Cc1ccc(OCc2ccc(Br)c(Cl)c2)cc1)N(C)CC(=O)O | 653

====

experiment: Ratio of AUClast in brain to plasma in C57BL/6 mouse at 24.5 mg/kg, sc administered as single dose measured 24 hrs by UPLC-MS/MS analysis; type: ADME, organism-based

Compound smiles | Kp at 24 h
C[C@H](Cc1ccc(OCc2ccc(Br)c(Cl)c2)cc1)N(C)CC(=O)O | 0.19

====

assay: Tmax in C57BL/6 mouse plasma at 23.4 mg/kg, po administered as single dose measured 24 hrs by UPLC-MS/MS analysis; format: ADME, organism-based
Metric name: Tmax (h)

Compound smiles | Metric name | Measured number
CN(CC(=O)O)[C@H](CC#N)Cc1ccc(OCc2ccc(Cl)c(Cl)c2)cc1 | Tmax | 1

====

assay: Ratio of AUClast in brain to plasma in C57BL/6 mouse at 10.8 mg/kg, iv administered as single dose measured 24 hrs by UPLC-MS/MS analysis; assay type: ADME, organism-based
Metric name: Kp at 24 h

Compound smiles | Metric name | Measured number
C#CCN(C)[C@H](C)Cc1ccccc1 | Kp at 24 h | 5.73

====

assay: Tmax in C57BL/6 mouse brain at 24.5 mg/kg, iv administered as single dose measured 24 hrs by UPLC-MS/MS analysis; assay type: ADME, organism-based

Compound smiles | Measurement unit | Tmax
C[C@H](Cc1ccc(OCc2ccc(Br)c(Cl)c2)cc1)N(C)CC(=O)O | h | 4

====

test: Cmax in C57BL/6 mouse plasma at 24.5 mg/kg, po administered as single dose measured 24 hrs by UPLC-MS/MS analysis; format: ADME, organism-based; parameters: dose 24.5 mg/kg, route oral

Compound smiles | Cmax (ng/mL)
C[C@H](Cc1ccc(OCc2ccc(Br)c(Cl)c2)cc1)N(C)CC(=O)O | 8530

====

assay: Tmax in C57BL/6 mouse plasma at 23.4 mg/kg, sc administered as single dose measured 24 hrs by UPLC-MS/MS analysis; type: ADME, organism-based

Compound smiles | Measurement unit | Tmax
CN(CC(=O)O)[C@H](CC#N)Cc1ccc(OCc2ccc(Cl)c(Cl)c2)cc1 | h | 1

====

Molecular target: Amine oxidase [flavin-containing] B (Homo sapiens, UniProt P27338)
Sequence (P27338 whole entry): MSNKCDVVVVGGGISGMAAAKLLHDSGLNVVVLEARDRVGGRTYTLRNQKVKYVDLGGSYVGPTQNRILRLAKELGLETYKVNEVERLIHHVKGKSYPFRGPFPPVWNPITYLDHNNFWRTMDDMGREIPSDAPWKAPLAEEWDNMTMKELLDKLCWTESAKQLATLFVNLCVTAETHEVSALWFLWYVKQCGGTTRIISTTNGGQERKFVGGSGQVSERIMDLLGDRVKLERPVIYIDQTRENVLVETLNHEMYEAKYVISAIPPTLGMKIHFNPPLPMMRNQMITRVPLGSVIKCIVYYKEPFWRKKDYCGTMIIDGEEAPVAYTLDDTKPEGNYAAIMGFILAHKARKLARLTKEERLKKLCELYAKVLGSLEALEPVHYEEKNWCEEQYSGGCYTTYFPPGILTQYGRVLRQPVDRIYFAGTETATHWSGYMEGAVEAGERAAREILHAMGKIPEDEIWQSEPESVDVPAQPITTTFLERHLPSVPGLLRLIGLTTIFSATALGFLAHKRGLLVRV
Test: Inhibition of human recombinant MAO-B expressed in baculovirus infected BTI-TN-5B1-4 insect cells using benzylamine as substrate preincubated for 1 hr followed by substrate addition and measured after 30 mins by resazurin dye-based fluorescence assay
pIC50: −log10 of the molar value.

Compound smiles | Value modifier | pIC50
C[C@H](Cc1ccc(OCc2cc(F)cc(F)c2)cc1)N(C)CC(=O)O | = | 6.04
C[C@H](Cc1ccc(OCc2ccccc2Cl)cc1)N(C)CC(=O)O | = | 6.15
C[C@H](Cc1ccc(OCc2cccc(Cl)c2)cc1)N(C)CC(=O)O | = | 6.58
COC(=O)[C@H](Cc1ccc(OCc2ccccc2)cc1)N(C)CC(=O)O | = | 5.10
COc1cccc(COc2ccc(C[C@@H](C)N(C)CC(=O)O)cc2)c1 | = | 5.68
C[C@H](Cc1ccc(OCc2ccncc2)cc1)N(C)CC(=O)O | = | 4.66
C[C@H](Cc1ccc(OCc2cc(Cl)ccc2Cl)cc1)N(C)CC(=O)O | = | 5.86
CN(CC(=O)O)[C@H](CO)Cc1ccc(OCc2ccccc2)cc1 | = | 5.99
C[C@H](Cc1ccc(OCc2ccc(C#N)cc2)cc1)N(C)CC(=O)O | = | 5.43
C[C@H](Cc1ccc(OCc2cccc([N+](=O)[O-])c2)cc1)N(C)CC(=O)O | = | 5.36
COC(=O)[C@H](Cc1ccc(OCc2cccc(Cl)c2)cc1)N(C)CC(=O)O | = | 5.90
C[C@H](Cc1ccc(OCc2ccccc2)cc1)N(C)CC(=O)O | = | 6.05
C#CCN(C)[C@H](C)Cc1ccc(OCc2ccccc2)cc1 | = | 8.30
C[C@H](Cc1ccc(OCc2cccc(C#N)c2)cc1)N(C)CC(=O)O | = | 4.67
C[C@H](Cc1ccc(OCc2ccc3ccccc3c2)cc1)N(C)CC(=O)O | = | 4.85
CN(CC(=O)O)[C@H](COCc1ccccc1)Cc1ccc(OCc2ccccc2)cc1 | = | 5.10
CN(CC(=O)O)[C@H](CC#N)Cc1ccc(OCc2ccc(Cl)c(Cl)c2)cc1 | = | 6.69
C[C@H](Cc1ccc(OCc2ccc(Cl)cc2)cc1)N(C)CC(=O)O | = | 6.06
C[C@H](Cc1ccc(OCc2cccc(F)c2)cc1)N(C)CC(=O)O | = | 6.06
C[C@H](Cc1ccc(OCc2ccccc2C#N)cc1)N(C)CC(=O)O | = | 4.85
C[C@H](Cc1ccc(OCc2ccc(Cl)c(Cl)c2)cc1)N(C)CC(=O)O | = | 6.66
C[C@H](Cc1ccc(OCc2cccnc2)cc1)N(C)CC(=O)O | < | 4.30
CN(CC(=O)O)[C@H](CC#N)Cc1ccc(OCc2ccccc2)cc1 | = | 6.27

====

experiment: Apparent half-life of the terminal disposition phase in C57BL/6 mouse brain at 23.4 mg/kg, sc administered as single dose measured 24 hrs by UPLC-MS/MS analysis; type: ADME, organism-based; conditions: read-out: t1/2 lambda z (converted)
Metric name: half-life

Compound smiles | Result
CN(CC(=O)O)[C@H](CC#N)Cc1ccc(OCc2ccc(Cl)c(Cl)c2)cc1 | 1.07 h

====

assay: Ratio of AUClast in brain to plasma in C57BL/6 mouse at 20 mg/kg, iv administered as single dose measured 24 hrs by UPLC-MS/MS analysis; type: ADME, organism-based
Metric name: Kp at 24 h

Compound smiles | Result
C[C@H](Cc1ccc(OCc2cccc(Cl)c2)cc1)N(C)CC(=O)O | 0.02

====

assay: AUClast in C57BL/6 mouse plasma at 23.4 mg/kg, sc administered as single dose measured 24 hrs by UPLC-MS/MS analysis; format: ADME, organism-based; set-up: dose 23.4 mg/kg, time 0 - last, route subcutaneous

Compound smiles | Measurement unit | AUC(0-t) at 24 h
CN(CC(=O)O)[C@H](CC#N)Cc1ccc(OCc2ccc(Cl)c(Cl)c2)cc1 | ng·h/mL | 35100

====

experiment: Metabolic stability in human plasma assessed as parent compound remaining at 5 uM after 4 hrs by UPLC-MS/MS analysis; type: ADME, cell-free; conditions: read-out: Stability
The reader will find reported remaining at 4 h, 5 µM values listed item by item below.

Compound smiles | remaining at 4 h, 5 µM
C[C@H](Cc1ccc(OCc2ccc(Br)c(Cl)c2)cc1)N(C)CC(=O)O | ≥ 75%
C#CCN(C)[C@H](C)Cc1ccccc1 | 55%
CN(CC(=O)O)[C@H](CC#N)Cc1ccc(OCc2ccc(Cl)c(Cl)c2)cc1 | ≥ 75%
C[C@H](Cc1ccc(OCc2cccc(Cl)c2)cc1)N(C)CC(=O)O | ≥ 75%
C[C@H](Cc1ccc(OCc2ccc(Cl)c(Cl)c2)cc1)N(C)CC(=O)O | ≥ 75%

====

experiment: Cmax in C57BL/6 mouse plasma at 24.5 mg/kg, sc administered as single dose measured 24 hrs by UPLC-MS/MS analysis; assay type: ADME, organism-based; design: dose 24.5 mg/kg, route subcutaneous

Compound smiles | Measurement unit | Cmax
C[C@H](Cc1ccc(OCc2ccc(Br)c(Cl)c2)cc1)N(C)CC(=O)O | ng/mL | 7110
